Here the recorded DC50 is given for each entry.
- system: CK1α (Homo sapiens, UniProt P48729+Q96SW2)
- Construct: expressed in transfected cells
- Sequence (P48729 whole entry): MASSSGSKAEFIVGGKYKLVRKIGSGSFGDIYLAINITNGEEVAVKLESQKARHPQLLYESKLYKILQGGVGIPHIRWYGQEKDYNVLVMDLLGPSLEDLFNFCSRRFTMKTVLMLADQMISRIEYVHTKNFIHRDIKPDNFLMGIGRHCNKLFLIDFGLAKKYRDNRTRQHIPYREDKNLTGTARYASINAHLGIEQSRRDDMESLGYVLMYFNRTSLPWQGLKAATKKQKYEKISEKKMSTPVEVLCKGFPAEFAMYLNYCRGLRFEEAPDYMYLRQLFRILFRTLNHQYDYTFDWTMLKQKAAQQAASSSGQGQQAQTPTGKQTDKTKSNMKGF
- Sequence (Q96SW2 whole entry): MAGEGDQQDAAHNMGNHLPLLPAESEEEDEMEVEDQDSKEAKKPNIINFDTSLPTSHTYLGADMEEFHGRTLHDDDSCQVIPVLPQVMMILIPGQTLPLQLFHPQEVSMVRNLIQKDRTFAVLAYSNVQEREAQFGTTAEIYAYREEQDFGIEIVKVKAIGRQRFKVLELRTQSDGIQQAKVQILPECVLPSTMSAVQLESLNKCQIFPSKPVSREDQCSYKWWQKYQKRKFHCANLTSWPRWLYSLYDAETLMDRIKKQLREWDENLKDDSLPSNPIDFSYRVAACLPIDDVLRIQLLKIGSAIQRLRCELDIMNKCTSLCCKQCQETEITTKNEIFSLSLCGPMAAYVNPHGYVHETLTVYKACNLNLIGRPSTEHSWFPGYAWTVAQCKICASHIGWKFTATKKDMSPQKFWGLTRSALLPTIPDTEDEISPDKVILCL
- Sequence (Q16531 whole entry partner): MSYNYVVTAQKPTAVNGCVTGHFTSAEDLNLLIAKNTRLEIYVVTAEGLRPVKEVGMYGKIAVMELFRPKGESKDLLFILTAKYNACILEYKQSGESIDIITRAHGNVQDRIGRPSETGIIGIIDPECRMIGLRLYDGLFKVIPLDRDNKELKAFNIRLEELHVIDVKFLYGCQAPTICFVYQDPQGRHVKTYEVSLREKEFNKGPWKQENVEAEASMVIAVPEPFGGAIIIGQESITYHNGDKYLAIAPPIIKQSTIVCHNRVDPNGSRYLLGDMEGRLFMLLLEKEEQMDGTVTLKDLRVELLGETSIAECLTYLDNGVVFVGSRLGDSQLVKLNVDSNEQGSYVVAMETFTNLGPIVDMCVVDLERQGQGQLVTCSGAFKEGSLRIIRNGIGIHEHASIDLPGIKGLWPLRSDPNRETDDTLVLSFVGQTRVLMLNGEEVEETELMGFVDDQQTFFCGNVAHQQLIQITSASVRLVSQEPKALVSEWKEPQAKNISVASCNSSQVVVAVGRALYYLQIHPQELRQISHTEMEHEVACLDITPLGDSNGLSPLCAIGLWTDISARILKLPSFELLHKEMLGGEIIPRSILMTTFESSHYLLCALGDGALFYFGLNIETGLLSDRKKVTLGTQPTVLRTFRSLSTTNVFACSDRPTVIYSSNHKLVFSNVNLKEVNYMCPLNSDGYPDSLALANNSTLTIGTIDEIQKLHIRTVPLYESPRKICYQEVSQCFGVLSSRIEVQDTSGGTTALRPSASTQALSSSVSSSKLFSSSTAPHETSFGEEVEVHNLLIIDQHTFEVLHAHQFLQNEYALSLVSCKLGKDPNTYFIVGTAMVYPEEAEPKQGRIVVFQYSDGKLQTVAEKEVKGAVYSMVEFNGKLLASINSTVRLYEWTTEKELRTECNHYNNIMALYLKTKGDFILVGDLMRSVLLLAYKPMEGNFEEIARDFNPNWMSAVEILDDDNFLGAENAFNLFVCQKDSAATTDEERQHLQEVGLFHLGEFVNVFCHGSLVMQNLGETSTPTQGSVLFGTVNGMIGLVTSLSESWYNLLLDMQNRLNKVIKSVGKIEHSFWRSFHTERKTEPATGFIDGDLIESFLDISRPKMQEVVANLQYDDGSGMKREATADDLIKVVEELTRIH
- procedure_text: CK1α ePL degradation assay in MDS-L cells
- Format: cell-based
- condition_details: concentration giving 50% CK1α degradation vs DMSO control; MDS-L cells expressing ePL-tagged CK1α

# annotated cases, reported DC50 shown
CC(F)(F)C(NC(=O)c1ccc2c(c1)CN(C1CCC(=O)NC1=O)C2=O)c1ccc(F)cc1 (stereo not shown) [Example 174] | < 100 nM
O=C1CCC(N2Cc3cc(C(=O)N[C@H](c4cccc(F)c4Cl)C(F)(F)F)ccc3C2=O)C(=O)N1 (stereo partly shown) [Example 152] | < 100 nM
O=C1CCC(N2Cc3c(ccc(C(=O)N[C@H](c4ccc(F)cc4)C(F)(F)F)c3Cl)C2=O)C(=O)N1 (stereo partly shown) [Example 153] | 100 to 500 nM

Please look at the following compound next.
Looking for the measured DC50 of O=C1CCC(N2Cc3c(ccc(C(=O)N[C@@H](CC(F)(F)F)c4cccc(F)c4)c3F)C2=O)C(=O)N1 (stereo partly shown) [Example 146] , can you help?
100 to 500 nM

====

Here the recorded DC50 is given for each entry.
- system: CK1α (Homo sapiens, UniProt P48729+Q96SW2)
- Construct: expressed in transfected cells
- procedure_text: CK1α ePL degradation assay in MDS-L cells
- Assay type: cell-based
- condition_details: concentration giving 50% CK1α degradation vs DMSO control; MDS-L cells expressing ePL-tagged CK1α

# annotated cases, reported DC50 shown
O=C1CCC(N2Cc3c(ccc(C(=O)N[C@H](c4ccc(OC5CC5)cc4)C(F)(F)F)c3F)C2=O)C(=O)N1 (stereo partly drawn) | 100 to 500 nM
O=C1CCC(N2Cc3cc(C(=O)N[C@@H](c4ccccc4F)C(F)(F)F)ccc3C2=O)C(=O)N1 (stereo partly drawn) | 500 to 1000 nM
O=C1CCC(N2Cc3cc(C(=O)N[C@H](C4CCN(CC(F)(F)F)CC4)C(F)(F)F)ccc3C2=O)C(=O)N1 (stereo partly drawn) | 100 to 500 nM
C[C@H](NC(=O)c1cc2c(cc1F)C(=O)N(C1CCC(=O)NC1=O)C2)c1ccccc1 (stereo partly drawn) | 500 to 1000 nM
O=C1CCC(N2Cc3cc(C(=O)N[C@H](c4ccc(CN5CCOCC5)cc4)C(F)(F)F)ccc3C2=O)C(=O)N1 (stereo partly drawn) | < 100 nM
O=C1CCC(N2Cc3c(ccc(C(=O)N[C@H](c4ncc(Cl)cc4Cl)C(F)(F)F)c3F)C2=O)C(=O)N1 (stereo partly drawn) | < 100 nM
O=C1CCC(N2Cc3cc(C(=O)N[C@H](C4CCC(F)(F)CC4)C(F)(F)F)ccc3C2=O)C(=O)N1 (stereo partly drawn) | 100 to 500 nM
CN1CCN(c2ccccc2[C@@H](NC(=O)c2ccc3c(c2)CN(C2CCC(=O)NC2=O)C3=O)C(F)(F)F)CC1 (stereo partly drawn) | < 100 nM
O=C1CCC(N2Cc3cc(C(=O)N[C@H](c4ccc(F)cc4OC(F)(F)F)C(F)(F)F)ccc3C2=O)C(=O)N1 (stereo partly drawn) | < 100 nM
CC1([C@@H](NC(=O)c2ccc3c(c2)CN(C2CCC(=O)NC2=O)C3=O)C(F)(F)F)COC1 (stereo partly drawn) | 100 to 500 nM

GET /values?readout=DC50&system=CK1α (Homo sapiens, UniProt P48729+Q96SW2)&item= O=C1CCC(N2Cc3cc(C(=O)N[C@@H](C(F)(F)F)C45CC(C4)C5)ccc3C2=O)C(=O)N1 (stereo partly drawn)
< 100 nM

GET /values?readout=DC50&system=CK1α (Homo sapiens, UniProt P48729+Q96SW2)&item= O=C1CCC(N2Cc3cc(C(=O)N[C@H](c4ccc(F)cc4)C(F)F)ccc3C2=O)C(=O)N1 (stereo partly drawn)
< 100 nM

GET /values?readout=DC50&system=CK1α (Homo sapiens, UniProt P48729+Q96SW2)&item= `O=C1CC[C@@H](N2Cc3cc(C(=O)N[C@H](c4ccccc4)C(F)(F)F)ccc3C2=O)C(=O)N1`
< 100 nM

GET /values?readout=DC50&system=CK1α (Homo sapiens, UniProt P48729+Q96SW2)&item= Cc1ccccc1[C@@H](NC(=O)c1ccc2c(c1F)CN(C1CCC(=O)NC1=O)C2=O)C(F)(F)F (stereo partly drawn)
< 100 nM

GET /values?readout=DC50&system=CK1α (Homo sapiens, UniProt P48729+Q96SW2)&item= O=C1CCC(N2Cc3cc(C(=O)N[C@H](c4ccc(CN5CCC5)cc4)C(F)(F)F)ccc3C2=O)C(=O)N1 (stereo partly drawn)
< 100 nM
